B1: Membrane-associated guanylate kinase, WW and PDZ domain-containing protein 2, residues 601 to 682; numbered along this chain, Q86UL8 (parent)
chain: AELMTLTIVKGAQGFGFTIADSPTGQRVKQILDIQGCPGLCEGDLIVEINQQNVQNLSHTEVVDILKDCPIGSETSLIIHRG

- Variants of: B1
- METHOD NOTES: abundance fitness (aPCA) (normalised: wild type 0, dead -1); higher = more abundant; growth selection in yeast, the domain comes from the species named
- MEASUREMENT PARAMETERS: Homo sapiens
MEASUREMENT TYPE: abundance fitness
Lab note: jot the number down without any unit.

"C41L" has a reported abundance fitness of -0.005

"S73V" has a reported abundance fitness of -0.025

"P38V" has a reported abundance fitness of -0.097

"S22T" has a reported abundance fitness of -0.076

"T75A" has a reported abundance fitness of 0.101

"V54F" has a reported abundance fitness of -0.867

"S73G" has a reported abundance fitness of 0.095

"V28I" has a reported abundance fitness of 0.144

"G82Q" has a reported abundance fitness of 0.092

"P23G" has a reported abundance fitness of -0.09

"H59D" has a reported abundance fitness of -0.176
